System: CCRIS mutagenicity, Ames/micronucleus/aberration tests
Assay Summary: CCRIS mutagenicity studies
Condition Notes: Test System: AMES SALMONELLA TYPHIMURIUM; Strain/Indicator: TA7003; Metabolic Activation: NONE; Method: PREINCUBATION
From the text: The CCRIS database contains chemical records with carcinogenicity, mutagenicity, tumor promotion, and tumor inhibition test results. It was developed by the National Cancer Institute (NCI). Data are derived from studies cited in primary journals, current awareness tools, NCI reports, and other sources. Test results have been reviewed by experts in carcinogenesis and mutagenesis. CCRIS provides historical information from the years 1985 - 2011. It is no longer updated. […]
Active and inactive are the calls of the source. The rule behind the calls is not given here.
Select the correct class. Options are active, inactive and nothing else.

Lookup: Given "O=[N+]([O-])c1ccc2c3c(cccc13)-c1ccccc1-2" , state the outcome it received in this test.
Found: active

Lookup: Given "O=[N+]([O-])c1ccc2c(ccc3ccccc32)c1" , state the outcome it received in this test.
Found: active

Lookup: Given "O=[N+]([O-])c1ccc2c(ccc3cc([N+](=O)[O-])ccc32)c1" , state the outcome it received in this test.
Found: active

Lookup: Given "O=c1oc2ccc([N+](=O)[O-])cc2c2ccccc12" , state the outcome it received in this test.
Found: inactive
